Listing: Kd of selected binders
assayed_system: T1, human PD-1 (human, UniProt Q15116 25-167)
T1 construct: The immunogen was PD1/Fc (Leu25-Gln167 fused to human IgG1 Pro100-Lys330); also called huPD-1; hPD-1
T1 sequence (Q15116 25-167 limits assumed): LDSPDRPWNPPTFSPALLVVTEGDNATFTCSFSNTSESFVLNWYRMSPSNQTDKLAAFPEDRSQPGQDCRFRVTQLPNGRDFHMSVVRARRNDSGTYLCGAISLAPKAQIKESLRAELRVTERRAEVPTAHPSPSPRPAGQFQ
assay_procedure: SPR, multiple-cycle, crude Fab from E. coli; antigen form not stated

binder	Kd / nM
PD1-BM Ab (Fab) (Fab, V domains shown, Humanized Fab with all 14 back mutations; also called PD1-BM Fab) VH: EVQLVESGGGLVQPGGSLRLSCAASGFVFSRYDMAWVRQTPGKGLEWVAFISGGGSNTYYPDTVKGRFTISRDNSKNTLYLQMNSLRAEDTAVYYCISPYYYAMEYWGQGTTVTVSS VL: DIQMTQSPSSISTSVGDRVTITCKASQDVDTAVAWYQQKPGKSPKLLIHWASTRHTGVPSRFSGSGSGTDFTLTLSSVQPEDLADYFCQQYSTFPWTFGGGTKLEIK	0.15
Fab 1 (Fab, V domains shown, Crude Fab from E. coli; also called PD1-BM VH-T40A) VH: EVQLVESGGGLVQPGGSLRLSCAASGFVFSRYDMAWVRQAPGKGLEWVAFISGGGSNTYYPDTVKGRFTISRDNSKNTLYLQMNSLRAEDTAVYYCISPYYYAMEYWGQGTTVTVSS VL: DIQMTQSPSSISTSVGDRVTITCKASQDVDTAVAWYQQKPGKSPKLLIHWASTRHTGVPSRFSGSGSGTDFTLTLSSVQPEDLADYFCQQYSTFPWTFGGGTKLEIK	0.32
Fab 9 (Fab, V domains shown, Crude Fab from E. coli; also called PD1-BM VL-L75I) VH: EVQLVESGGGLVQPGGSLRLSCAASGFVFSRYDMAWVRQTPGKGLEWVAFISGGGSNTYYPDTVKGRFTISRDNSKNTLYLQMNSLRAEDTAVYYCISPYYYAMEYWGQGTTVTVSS VL: DIQMTQSPSSISTSVGDRVTITCKASQDVDTAVAWYQQKPGKSPKLLIHWASTRHTGVPSRFSGSGSGTDFTLTISSVQPEDLADYFCQQYSTFPWTFGGGTKLEIK	0.24
